molecules and their reported EC50
# Test system: UniProt O43614
# Assay overview: Agonist activity at human OX2R stably expressed in CHO RD-HGA16 cells assessed as fluorescence changes measured after 30 mins by calcium mobilization assay
# Type: functional, cell-based
# number only, unit nM dropped from output

Below are worked cases with known answers.
item_smiles=COc1ccc(-c2cccc(C(=O)N(C)C)c2)cc1C(=O)Nc1cccc(NCCNC(=O)c2cccc(C)c2)c1 readout=EC50 units_text=nM experimental_result=1270
item_smiles=COc1ccc(-c2csc(C(=O)N(C)C)c2)cc1S(=O)(=O)Nc1cccc(NCCNC(=O)c2cccc(C)c2)c1 readout=EC50 units_text=nM experimental_result=166
item_smiles=COc1ccc(-c2cccc(CN(C)C)c2)cc1S(=O)(=O)Nc1cccc(NCCNC(=O)c2ccccc2N(C)C)c1 readout=EC50 units_text=nM experimental_result=560

Observed EC50 on UniProt O43614 for COc1ccc(-c2cccc(C(=O)N(C)C)c2)cc1S(=O)(=O)Nc1cccc(NCCNC(=O)c2ccccc2N(C)C)c1 , please.
165

----------
# Test system: Orexin receptor type 2 (Homo sapiens)
# Assay overview: Agonist activity at human OX2R stably expressed in CHO cells
# Assay type: functional, cell-based, CHO-RD-HGA16
Readout: EC50

Which EC50 is listed for Cc1ccc(Cn2c(=N)n(CC(O)c3ccc(Cl)c(Cl)c3)c3ccccc32)cc1 (stereo unspecified) ?
> 3.2 µM

----------
# Test system: Orexin receptor type 2 (Homo sapiens, UniProt O43614)
# Sequence (O43614 whole entry): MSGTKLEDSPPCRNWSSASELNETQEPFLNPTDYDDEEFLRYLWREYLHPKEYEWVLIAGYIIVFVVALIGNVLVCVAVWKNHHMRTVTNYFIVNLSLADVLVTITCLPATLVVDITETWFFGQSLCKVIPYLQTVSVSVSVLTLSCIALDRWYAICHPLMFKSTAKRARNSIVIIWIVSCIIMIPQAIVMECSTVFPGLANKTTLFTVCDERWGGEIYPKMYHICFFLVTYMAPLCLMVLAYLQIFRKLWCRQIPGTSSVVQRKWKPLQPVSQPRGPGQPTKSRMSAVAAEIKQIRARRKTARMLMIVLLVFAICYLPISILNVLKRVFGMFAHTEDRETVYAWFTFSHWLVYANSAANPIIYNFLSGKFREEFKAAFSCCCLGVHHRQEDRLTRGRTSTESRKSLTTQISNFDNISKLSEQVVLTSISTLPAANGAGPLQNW
# Assay overview: Agonist activity at human OX2R stably expressed in CHO RD-HGA16 cells assessed as fluorescence changes measured after 30 mins by calcium mobilization assay
# Format: functional, cell-based
pEC50: −log10 of the molar value.
Readout: pEC50

molecule="COc1ccc(-c2cccc(C(=O)N(C)C)c2)cc1S(=O)(=O)Nc1cccc(NCC(C)NC(=O)c2cccc(C)c2)c1 (stereo unspecified)" experimental_result=6.42
molecule=COc1ccc(-c2cccc(C(=O)N(C)Cc3ccncc3)c2)cc1C(=O)Nc1cccc(NCCNC(=O)c2cccc(C)c2)c1 experimental_result=6.06
molecule=COc1ccc(CCC(=O)N(C)C)cc1S(=O)(=O)Nc1cccc(NCCNC(=O)c2cccc(C)c2)c1 experimental_result="< 5.00"

Observed pEC50 on Orexin receptor type 2 (Homo sapiens, UniProt O43614) for COc1ccc(-c2cccc(C(=O)N(C)C)c2)cc1S(=O)(=O)Nc1cccc(N2CCN(C(=O)c3cccc(C)c3)CC2)c1 , please.
< 5.00

Observed pEC50 on Orexin receptor type 2 (Homo sapiens, UniProt O43614) for COc1ccc(-c2cccc(C(=O)N(C)C)c2)cc1S(=O)(=O)Nc1cccc(N2CCN(C(=O)c3ccccc3N(C)C)CC2)c1 , please.
< 5.00

Observed pEC50 on Orexin receptor type 2 (Homo sapiens, UniProt O43614) for COc1ccc(/C=C/C(=O)N(C)C)cc1S(=O)(=O)Nc1cccc(NCCNC(=O)c2cccc(C)c2)c1 , please.
< 5.00

----------
# Test system: Orexin/Hypocretin receptor type 1 (Homo sapiens, UniProt O43613)
# Sequence (O43613 whole entry): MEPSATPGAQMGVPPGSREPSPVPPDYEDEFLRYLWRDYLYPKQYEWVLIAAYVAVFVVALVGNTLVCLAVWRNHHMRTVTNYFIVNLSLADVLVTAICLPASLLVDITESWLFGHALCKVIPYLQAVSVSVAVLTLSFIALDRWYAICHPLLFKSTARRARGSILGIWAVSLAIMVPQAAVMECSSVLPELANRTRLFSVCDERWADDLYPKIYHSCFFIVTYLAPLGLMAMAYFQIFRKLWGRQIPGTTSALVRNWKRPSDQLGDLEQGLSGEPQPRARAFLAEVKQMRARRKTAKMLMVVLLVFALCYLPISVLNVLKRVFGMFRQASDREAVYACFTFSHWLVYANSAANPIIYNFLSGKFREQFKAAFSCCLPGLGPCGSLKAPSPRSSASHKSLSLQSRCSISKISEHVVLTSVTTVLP
# Assay overview: Agonist activity at human OX1R stably expressed in CHO RD-HGA16 cells assessed as fluorescence changes measured after 30 mins by calcium mobilization assay
# Format: functional, cell-based
pEC50: −log10 of the molar value.
Readout: pEC50

Below are worked cases with known answers.
compound="COc1ccc(-c2cccc(C(=O)N(C)C)c2)cc1S(=O)(=O)Nc1cccc(NCC(C)NC(=O)c2cccc(C)c2)c1 (configuration not stated)" test_system="Orexin/Hypocretin receptor type 1 (Homo sapiens, UniProt O43613)" experimental_result=6.18
compound=COc1ccc(-c2cccc(C(=O)NCc3ccccn3)c2)cc1S(=O)(=O)Nc1cccc(NCCNC(=O)c2cccc(C)c2)c1 test_system="Orexin/Hypocretin receptor type 1 (Homo sapiens, UniProt O43613)" experimental_result="< 5.00"

Which pEC50 is listed for COc1ccc(-c2cccc(C(=O)N(C)C)c2)cc1S(=O)(=O)Nc1cccc(NCCNC(=O)c2ccccc2N(C)C)c1 ?
6.08

Which pEC50 is listed for COc1ccc(-c2cccc(C(=O)N(C)Cc3ccccc3)c2)cc1S(=O)(=O)Nc1cccc(NCCNC(=O)c2cccc(C)c2)c1 ?
< 5.00

Which pEC50 is listed for COc1ccc(-c2cccc(C(=O)N(C)C)c2)cc1S(=O)(=O)Nc1cccc(N2CCN(C(=O)c3cccc(C)c3)CC2)c1 ?
< 5.00

Which pEC50 is listed for COc1ccc(-c2cccc(C(=O)N(C)c3ccccn3)c2)cc1S(=O)(=O)Nc1cccc(NCCNC(=O)c2cccc(C)c2)c1 ?
< 5.00

Which pEC50 is listed for COc1ccc(-c2cccc(C(=O)N(C)C)c2)cc1C(=O)Nc1cccc(NCCNC(=O)c2cccc(C)c2)c1 ?
< 5.00

----------
# Test system: Orexin/Hypocretin receptor type 1 (Homo sapiens, UniProt O43613)
# Assay overview: Agonist activity at human OX1R stably expressed in CHO cells
# Assay type: functional, cell-based, CHO-RD-HGA16
# Measurement conditions: read-out: EC50
pEC50: −log10 of the molar value.
Readout: pEC50

molecule="Cc1ccc(Cn2c(=N)n(CC(O)c3ccc(Cl)c(Cl)c3)c3ccccc32)cc1 (configuration not stated)" experimental_result="< 5.49"

Let's switch to this molecule now.
Which pEC50 is listed for COC(=O)N1CCC[C@H](NS(C)(=O)=O)[C@@H]1CO[C@H]1CC[C@@H](c2ccccc2)CC1 ?
< 4.52
